Target: cAMP-dependent protein kinase type I-alpha regulatory subunit [R243A] (Homo sapiens, UniProt P10644, R243A)
Sequence (P10644 whole entry R243A): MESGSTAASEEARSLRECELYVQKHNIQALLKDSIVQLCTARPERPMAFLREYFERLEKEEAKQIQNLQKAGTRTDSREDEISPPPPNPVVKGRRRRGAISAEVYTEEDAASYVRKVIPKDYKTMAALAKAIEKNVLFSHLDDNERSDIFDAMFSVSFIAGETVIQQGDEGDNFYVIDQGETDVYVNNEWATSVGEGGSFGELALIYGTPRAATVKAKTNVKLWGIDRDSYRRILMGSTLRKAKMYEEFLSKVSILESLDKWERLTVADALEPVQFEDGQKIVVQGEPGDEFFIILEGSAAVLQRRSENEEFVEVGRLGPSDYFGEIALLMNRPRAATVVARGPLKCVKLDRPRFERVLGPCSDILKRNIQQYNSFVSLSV
Assay: 8-[Fluo]-cAMP Fluorescence Polarization Binding Assay
Measurement label: Kd
Kindly format the answer as number then unit.

QUERY: Given Nc1ncnc2c1nc(SCCNC(=S)Nc1ccc(-c3c4ccc(=O)cc-4oc4cc(O)ccc34)c(C(=O)O)c1)n2C1OC2COP(=O)(O)OC2C1O (stereo unspecified) [8-[Fluo]-cAMP] , state its recorded Kd.
RESULT: 7.29 nM

====

Molecular target: cAMP-dependent protein kinase type I-alpha regulatory subunit (Homo sapiens)
Sequence (P10644 whole entry): as the sequence (P10644 whole entry R243A) above, with A243R counted along it
Assay: 8-[Fluo]-cAMP Fluorescence Polarization Binding Assay
Method: The ability of the R subunit basic patch mutants to bind cAMP in the absence of the C subunit was tested using the fluorescent cAMP analogue, 8-[fluo]-cAMP (Biolog), used at a final concentration of 10 nM. Wells were titrated with a rangeof R subunit concentrations (from 0 to 125 nM), which were diluted with FP assay buffer.
Measurement label: Kd (nM)
// note: answer is a bare numeric in nM

QUERY: Fill in: Kd of Nc1ncnc2c1nc(SCCNC(=S)Nc1ccc(-c3c4ccc(=O)cc-4oc4cc(O)ccc34)c(C(=O)O)c1)n2C1OC2COP(=O)(O)OC2C1O (stereo unspecified) [8-[Fluo]-cAMP] is ___
RESULT: 7.3
